Assay: chemical genetic growth profiling, strain panel (AID 1159580);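 note: tested at 20 µM; growth read once vehicle control cultures reached saturation at 30 °C; 1 = growth at the plate median or of vehicle wells; lower values mean less growth of the strain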
Details: S. cerevisiae deletion strains, growth OD, locus YOR270C, strain vph1, active compounds read low
Screen size: about 5,500 compounds; about 2,000 (36%) were called active. About 18% were inconclusive and are not listed. The list shows a part of the results.
Documented normalized growth across a set of molecules
Provide a numeric answer; units are not to be included.

Some entries whose results are on file:
{"MOLECULE": "C[C@@H]1CC[C@@]2(NC1)O[C@H]1C[C@H]3C4CC=C5C[C@@H](O)CC[C@]5(C)C4CC[C@]3(C)C1[C@@H]2C (stereo partly drawn)", "normalized growth": 0.0993}
{"MOLECULE": "C[C@@H]([C@H](O)c1ccccc1)N(C)C", "normalized growth": 1.03}
{"MOLECULE": "C=C1CCC2(OC1)OC1CC3C4CC=C5CC(O)CC(O)C5(C)C4CCC3(C)C1C2C (stereo not drawn)", "normalized growth": 0.771}
{"MOLECULE": "CC1CCC2(OC1)OC1CC3C4CC[C@H]5C[C@@H](O)CC[C@]5(C)C4CC(=O)[C@]3(C)C1C2C (stereo partly drawn)", "normalized growth": 1.02}

Read the next record carefully.
Summary for this molecule, O=C(Cc1cccs1)NC1C(=O)N2C(C(=O)[O-])=C(C[n+]3ccccc3)CSC12 (stereo not drawn) : normalized growth is 0.942
